Test system: Nalm-6
Test: MTT assay, Nalm-6 cells
Assay type: cell-based
Conditions: Homo sapiens; Nalm-6, 1 μM, 24 h, MTT; read-out: Viability rate
Overview of recorded viability at 1 µM for various compounds
Lab book: enter the figure in %, no units written.

Examples with their reported viability at 1 µM follow.
compound	tgt	measure	assay.value
Cc1ccnc(Nc2cc(NC(=O)c3ccc(CN4CCOCC4)cc3)ccc2C)c1	Nalm-6	viability at 1 µM	72.7
COc1ccc(CN2CCN(Cc3ccc(C(=O)Nc4ccc(C)c(Nc5nccc(C)n5)c4)cc3)CC2)c(OC)c1OC	Nalm-6	viability at 1 µM	100
Cc1ccnc(Nc2cc(NC(=O)c3ccc(CN4CCN(c5ncccn5)CC4)cc3)ccc2C)n1	Nalm-6	viability at 1 µM	95.8

State the recorded viability at 1 µM for this entry: Cc1ccc(NC(=O)c2ccc(CN3CCN(c4ncccn4)CC3)cc2)cc1Nc1cnccn1
95.1

Try this compound too: Cc1ccnc(Nc2cc(NC(=O)c3ccc(CN4CCOCC4)cc3)ccc2C)n1
103

Try this compound too: Cc1ccc(NC(=O)c2ccc(CN3CCN(C)CC3)cc2)cc1Nc1nccc(-c2cccnc2)n1 [imatinib, reference compound]
90.1

Try this compound too: COc1ccc(CN2CCN(Cc3ccc(C(=O)Nc4ccc(C)c(Nc5cc(C)ccn5)c4)cc3)CC2)c(OC)c1OC
87.3

###

Overview of recorded viability at 50 µM for various compounds
Test system: K562
Experiment: MTT assay, K562 cells
Type: cell-based
Details: Homo sapiens; K562, 50 μM, 24 h, MTT; read-out: Viability rate
Lab book: enter the figure in %, no units written.

compound	unit	viability at 50 µM
Cc1ccc(NC(=O)c2ccc(CN3CCN(c4ncccn4)CC3)cc2)cc1Nc1cnccn1	%	62.9
Cc1ccnc(Nc2cc(NC(=O)c3ccc(CN4CCOCC4)cc3)ccc2C)c1	%	61.2
Cc1ccc(NC(=O)c2ccc(CN3CCN(C)CC3)cc2)cc1Nc1nccc(-c2cccnc2)n1 [imatinib, reference compound]	%	60.8
COc1ccc(CN2CCN(Cc3ccc(C(=O)Nc4ccc(C)c(Nc5nccc(C)n5)c4)cc3)CC2)c(OC)c1OC	%	78.1
COc1ccc(CN2CCN(Cc3ccc(C(=O)Nc4ccc(C)c(Nc5cc(C)ccn5)c4)cc3)CC2)c(OC)c1OC	%	56.1
Cc1ccnc(Nc2cc(NC(=O)c3ccc(CN4CCN(c5ncccn5)CC4)cc3)ccc2C)n1	%	102

State the recorded viability at 50 µM for this entry: Cc1ccnc(Nc2cc(NC(=O)c3ccc(CN4CCOCC4)cc3)ccc2C)n1
72.5

###

Assay: MTT assay, Hek293T non-leukemic control cells
Type: cell-based
Settings: human, Hek293T cells (non-leukemic control cell line), 20 μM, read-out: Viability rate
measure: viability at 24 h, 20 µM (%)
Lab book: enter the figure in %, no units written.

Examples with their reported viability at 24 h, 20 µM follow.
compound	viability at 24 h, 20 µM [%]
Cc1ccnc(Nc2cc(NC(=O)c3ccc(CN4CCOCC4)cc3)ccc2C)n1 [Compound 8]	90
Cc1ccc(NC(=O)c2ccc(CN3CCN(C)CC3)cc2)cc1Nc1nccc(-c2cccnc2)n1 [imatinib, reference compound]	55.7
Cc1ccc(NC(=O)c2ccc(CN3CCN(c4ncccn4)CC3)cc2)cc1Nc1cnccn1 [Compound 7]	76
Cc1ccnc(Nc2cc(NC(=O)c3ccc(CN4CCN(c5ncccn5)CC4)cc3)ccc2C)n1 [Compound 5]	56.2
Cc1ccnc(Nc2cc(NC(=O)c3ccc(CN4CCOCC4)cc3)ccc2C)c1 [Compound 9]	76.5
COc1ccc(CN2CCN(Cc3ccc(C(=O)Nc4ccc(C)c(Nc5nccc(C)n5)c4)cc3)CC2)c(OC)c1OC [Compound 6]	65.5

Alright, here's another compound for you.
State the recorded viability at 24 h, 20 µM for this entry: COc1ccc(CN2CCN(Cc3ccc(C(=O)Nc4ccc(C)c(Nc5cc(C)ccn5)c4)cc3)CC2)c(OC)c1OC [Compound 10]
80.8
